# experiment.summary: total protein half-life in vivo (active degradation + dilution); higher = more stable protein
# measurement.setup: E. coli NCM3722 delta-clpP delta-lon delta-hslV; growth: N-lim chemostat; doubling time 6 h
For each of the sequences below, state its total protein half-life in vivo.
Only the number, expressed in h, is required.

If you can, please state the reported total protein half-life in vivo value of MDTELLKTFLEVSRTRHFGRAAESLYLTQSAVSFRIRQLENQLGVNLFTRHRNNIRLTAAGEKLLPYAETLMSTWQAARKEVAHTSRHNEFSIGASASLWECMLNQWLGRLYQNQDAHTGLQFEARIAQRQSLVKQLHERQLDLLITTEAPKMDEFSSQLLGYFTLALYTSAPSKLKGDLNYLRLEWGPDFQQHEAGLIGADEVPILTTSSAELAQQQIAMLNGCTWLPVSWARKKGGLHTVVDSTTLSRPLYAIWLQNSDKNALIRDLLKINVLDEVY [P0A8R9] . 5.38

Another sequence to look at: MTMKKLLIIILPVLLSGCSAFNQLVERMQTDTLEYQCDEKPLTVKLNNPRQEVSFVYDNQLLHLKQGISASGARYTDGIYVFWSKGDEATVYKRDRIVLNNCQLQNPQR 5.8

Another sequence to look at: MKIFLENLYHSDCYFLPIRDNQQVLVGVELITHFSSEDGTVRIPTSRVIAQLTEEQHWQLFSEQLELLKSCQHFFIQHKLFAWLNLTPQVATLLLERDNYAGELLKYPFIELLINENYPHLNEGKDNRGLLSLSQVYPLVLGNLGAGNSTMKAVFDGLFTRVMLDKSFIQQQITHRSFEPFIRAIQAQISPCCNCIIAGGIDTAEILAQITPFDFHALQGCLWPAVPINQITTLVQR 4.97

Another sequence to look at: MDSFPAIEIDKVKAWDFRLANINTSECLNVAYGVDANYLDGVGVSITSIVLNNRHINLDFYIIADVYNDGFFQKIAKLAEQNQLRITLYRINTDKLQCLPCTQVWSRAMYFRLFAFQLLGLTLDRLLYLDADVVCKGDISQLLHLGLNGAVAAVVKDVEPMQEKAVSRLSDPELLGQYFNSGVVYLDLKKWADAKLTEKALSILMSKDNVYKYPDQDVMNVLLKGMTLFLPREYNTIYTIKSELKDKTHQNYKKLITESTLLIHYTGATKPWHKWAIYPSVKYYKIALENSPWKDDSPRDAKSIIEFKKRYKHLLVQHHYISGIIAGVCYLCRKYYRK 5.91

Another sequence to look at: MLVSCAMRLHSGVFPDYAEKLPQEEKMEKEDSFPQRVWQIVAAIPEGYVTTYGDVAKLAGSPRAARQVGGVLKRLPEGSTLPWHRVVNRHGTISLTGPDLQRQRQALLAEGVMVSGSGQIDLQRYRWNY [P0AFP2] 5.49

Another sequence to look at: MQDRNFDDIAEKFSRNIYGTTKGQLRQAILWQDLDRVLAEMGPQKLRVLDAGGGEGQTAIKMAERGHQVILCDLSAQMIDRAKQAAEAKGVSDNMQFIHCAAQDVASHLETPVDLILFHAVLEWVADPRSVLQTLWSVLRPGGVLSLMFYNAHGLLMHNMVAGNFDYVQAGMPKKKKRTLSPDYPRDPAQVYLWLEEAGWQIMGKTGVRVFHDYLREKHQQRDCYEALLELETRYCRQEPYITLGRYIHVTARKPQSKDKV 4.99
